Parameter Relative Activity (ratio of variant IC50/WT IC50), chromogenic thrombin inhibition assay: see the listing below.
- tested.target: thrombin
- protocol.details: cell-based or functional assay
Respond numerically; units are ratio and should not be typed.

See these solved cases before continuing.
stdin: Dear colleague, please send me the reported Relative Activity (ratio of variant IC50/WT IC50), chromogenic thrombin inhibition assay for hirudin mutein M 48 (V21Q) (other) VVYTDCTESGQNLCLCEGSVQCGQGNKCILGSDGEKNQCVTGEGTPKPESHNDGDFEEIPEEYLQ when you can.
stdout: 0.83

stdin: Give the reported value of Relative Activity (ratio of variant IC50/WT IC50), chromogenic thrombin inhibition assay for this record: hirudin mutein M 58 (I29R) (other) VVYTDCTESGQNLCLCEGSVVCGQGNKCRLGSDGEKNQCVTGEGTPKPESHNDGDFEEIPEEYLQ
stdout: 1

stdin: Hello, please tell me recorded Relative Activity (ratio of variant IC50/WT IC50), chromogenic thrombin inhibition assay for this one: hirudin mutein M 78 (D53E) (other) VVYTDCTESGQNLCLCEGSVVCGQGNKCILGSDGEKNQCVTGEGTPKPESHNEGDFEEIPEEYLQ
stdout: 1

stdin: Please supply the value of reported Relative Activity (ratio of variant IC50/WT IC50), chromogenic thrombin inhibition assay for the item hirudin mutein M 35 (I29T L30R) (other) VVYTDCTESGQNLCLCEGSVVCGQGNKCTRGSDGEKNQCVTGEGTPKPESHNDGDFEEIPEEYLQ
stdout: 2.3

Read the next record carefully.
stdin: Fill in Relative Activity (ratio of variant IC50/WT IC50), chromogenic thrombin inhibition assay for record hirudin mutein M 81 (F56H) (other) VVYTDCTESGQNLCLCEGSVVCGQGNKCILGSDGEKNQCVTGEGTPKPESHNDGDHEEIPEEYLQ
stdout: 0.8
